Entries and their IC50
System Name: HLA DRB1*09:01 (Homo sapiens, UniProt P01903+P01911, A100R/A103E/D57H/D86V/F55Y/F60I/F76Y/I96F/K127E/L162R/M171V/P40D/Q125H/Q99R/R33Q/R42F/S133A/S66N/T210M/V115G/W38K/Y107V/Y59G/Y89S)
Test: biochemical
Assay type: binding
Conditions Used: binder threshold 1,000 nM, read-out: In vitro (IC50 nM) DRB1*09:01
Quick note: number first, unit second.

# annotated cases, reported IC50 shown
CC[C@H](C)[C@H](NC(=O)[C@@H]1CCCN1C(=O)[C@H](CCSC)NC(=O)[C@H](CC(C)C)NC(=O)[C@H](CC(C)C)NC(=O)[C@H](CO)NC(=O)[C@H](Cc1ccc(O)cc1)NC(=O)[C@H](Cc1ccc(O)cc1)NC(=O)[C@@H](N)CO)C(=O)N[C@@H](CC(C)C)C(=O)N[C@H](C(=O)N[C@@H](CC(C)C)C(=O)N[C@H](C(=O)N[C@@H](CCCNC(=N)N)C(=O)N[C@@H](C)C(=O)O)[C@@H](C)O)[C@@H](C)O :: 1550 nM
CC[C@H](C)[C@H](NC(=O)[C@H](CC(=O)O)NC(=O)[C@H](CS)NC(=O)[C@H](CCSC)NC(=O)[C@@H](NC(=O)[C@@H]1CCCN1C(=O)[C@H](CC(C)C)NC(=O)[C@H](CC(N)=O)NC(=O)[C@H](Cc1ccc(O)cc1)NC(=O)[C@H](CCCNC(=N)N)NC(=O)[C@@H](N)Cc1ccc(O)cc1)[C@@H](C)O)C(=O)N[C@@H](CCCNC(=N)N)C(=O)N[C@@H](CCC(N)=O)C(=O)N[C@@H](CC(C)C)C(=O)N[C@@H](CC(C)C)C(=O)O [Peptide 92] :: 1490 nM

// moving on: another record for IC50
Given the entry CC(C)C[C@H](NC(=O)[C@H](C)NC(=O)[C@H](CCCNC(=N)N)NC(=O)[C@@H](NC(=O)[C@H](CC(C)C)NC(=O)[C@@H](N)[C@@H](C)O)[C@@H](C)O)C(=O)N[C@H](C(=O)N[C@@H](C)C(=O)N[C@@H](CCC(=O)O)C(=O)N[C@@H](CO)C(=O)N[C@@H](Cc1c[nH]cn1)C(=O)N[C@H](C(=O)N[C@@H](CC(=O)O)C(=O)N[C@H](C(=O)N[C@@H](CC(=O)O)C(=O)O)[C@@H](C)O)C(C)C)[C@@H](C)O , report its measured IC50.
59 nM

====

System Name: HLA DRB1*01:01 (Homo sapiens, UniProt P01903+P01911, A100R/D57E/F55L/F60I/F76Y/I96L/L162R/M171V/P40L/Q125E/R42F/V115G/Y59C)
Test: biochemical
Type: binding
Conditions Used: binder threshold 1,000 nM, read-out: In vitro (IC50 nM) DRB1*01:01
Entries and their IC50
Quick note: number first, unit second.

CSCC[C@H](NC(=O)[C@@H](NC(=O)[C@@H]1CCCN1C(=O)[C@H](CC(C)C)NC(=O)[C@H](CC(N)=O)NC(=O)[C@H](Cc1ccc(O)cc1)NC(=O)[C@H](CCCNC(=N)N)NC(=O)[C@H](Cc1ccc(O)cc1)NC(=O)[C@H](Cc1ccc(O)cc1)NC(=O)[C@H](CC(=O)O)NC(=O)[C@H](Cc1ccc(O)cc1)NC(=O)[C@H](CC(=O)O)NC(=O)[C@@H](N)CO)[C@@H](C)O)C(=O)N[C@@H](CS)C(=O)N[C@@H](CC(=O)O)C(=O)O [Peptide 91] :: 6670 nM

// moving on: another record for IC50
Given the entry CC(C)C[C@H](NC(=O)[C@H](C)NC(=O)[C@H](CCCNC(=N)N)NC(=O)[C@@H](NC(=O)[C@H](CC(C)C)NC(=O)[C@@H](N)[C@@H](C)O)[C@@H](C)O)C(=O)N[C@H](C(=O)N[C@@H](C)C(=O)N[C@@H](CCC(=O)O)C(=O)N[C@@H](CO)C(=O)N[C@@H](Cc1c[nH]cn1)C(=O)N[C@H](C(=O)N[C@@H](CC(=O)O)C(=O)N[C@H](C(=O)N[C@@H](CC(=O)O)C(=O)O)[C@@H](C)O)C(C)C)[C@@H](C)O [NSP12_50] , report its measured IC50.
2100 nM
